Tested on: E. coli IH3080
Experiment: Growth inhibition around wells on LB agar plates
Format: cell-based, Escherichia coli
Settings: growth inhibition area around a well containing 10 µg of compound, 18 h at 37°C
Bridge positions count the residues as written; N and C are the ends. Square brackets hold non-standard residues; d marks the D form. Peptide text beside a SMILES is read from it. * marks the point of attachment. Octanoyl = CCCCCCCC(=O)*; Dab = NCC[C@H](N)C(=O)O; Abu = CC[C@H](N)C(=O)O
Each entry below carries its recorded Antibacterial activity at 10 µg.
Report only the number, with the unit square millimeters understood.

CC[C@H](NC(=O)[C@@H](NC(=O)[C@@H](N)CC)[C@@H](C)O)C(=O)N[C@H]1CCNC(=O)[C@H]([C@@H](C)O)NC(=O)[C@H](CCN)NC(=O)[C@H](CCN)NC(=O)[C@H](CC(C)C)NC(=O)[C@@H](Cc2ccccc2)NC(=O)[C@H](CCN)NC1=O [NAB 705] (H-[Abu]T[Abu][Dab][Dab][dF]L[Dab][Dab]T; lactam 4-C) : 0
CCCCCCCC(=O)N[C@H](C(=O)N[C@@H](CC)C(=O)N[C@H]1CCNC(=O)[C@H]([C@@H](C)O)NC(=O)[C@H](CCN)NC(=O)[C@H](CCN)NC(=O)[C@H](CC(C)C)NC(=O)[C@@H](Cc2ccccc2)NC(=O)[C@H](CCN)NC1=O)[C@@H](C)O [NAB 7061] (Octanoyl-T[Abu][Dab][Dab][dF]L[Dab][Dab]T; lactam 3-C) : 50
CC[C@@H]1NC(=O)[C@H](CC(C)C)NC(=O)[C@@H](Cc2ccccc2)NC(=O)[C@H](CCN)NC(=O)[C@@H](NC(=O)[C@H](CCN)NC(=O)[C@@H](N)[C@@H](C)O)CCNC(=O)[C@H]([C@@H](C)O)NC(=O)[C@H](CC)NC1=O [NAB 701] (H-T[Dab][Dab][Dab][dF]L[Abu][Abu]T; lactam 3-C) : 0

# ---- query compound ----
What measured Antibacterial activity at 10 µg is associated with CC[C@H](NC(=O)[C@@H](N)[C@@H](C)O)C(=O)N[C@H]1CCNC(=O)[C@H]([C@@H](C)O)NC(=O)[C@H](CCN)NC(=O)[C@H](CCN)NC(=O)[C@H](CC(C)C)NC(=O)[C@@H](Cc2ccccc2)NC(=O)[C@H](CCN)NC1=O [NAB 704] (H-T[Abu][Dab][Dab][dF]L[Dab][Dab]T; lactam 3-C) on E. coli IH3080?
0

----------
The following compounds are shown together with reported Antibacterial activity in the presence of rifampin concn (µg/ml) of 1.0 values.
Tested on: E. coli IH3080
Test: Growth inhibition around wells on LB plates containing rifampin (sensitization)
Assay type: cell-based, Escherichia coli
Conditions: well containing 4 µg of compound; rifampin 1.0 µg/ml
Bridge positions count the residues as written; N and C are the ends. Square brackets hold non-standard residues; d marks the D form. Peptide text beside a SMILES is read from it. * marks the point of attachment. Octanoyl = CCCCCCCC(=O)*; Dab = NCC[C@H](N)C(=O)O; Abu = CC[C@H](N)C(=O)O
Number in square millimeters, nothing else.

Recorded Antibacterial activity in the presence of rifampin concn (µg/ml) of 1.0, per entry:
CCCCCCCC(=O)N[C@H](C(=O)N[C@@H](CC)C(=O)N[C@H]1CCNC(=O)[C@H]([C@@H](C)O)NC(=O)[C@H](CCN)NC(=O)[C@H](CCN)NC(=O)[C@H](CC(C)C)NC(=O)[C@@H](Cc2ccccc2)NC(=O)[C@H](CCN)NC1=O)[C@@H](C)O [NAB 7061] (Octanoyl-T[Abu][Dab][Dab][dF]L[Dab][Dab]T; lactam 3-C) : 155
CC[C@H](NC(=O)[C@@H](N)[C@@H](C)O)C(=O)N[C@H]1CCNC(=O)[C@H]([C@@H](C)O)NC(=O)[C@H](CCN)NC(=O)[C@H](CCN)NC(=O)[C@H](CC(C)C)NC(=O)[C@@H](Cc2ccccc2)NC(=O)[C@H](CCN)NC1=O [NAB 704] (H-T[Abu][Dab][Dab][dF]L[Dab][Dab]T; lactam 3-C) : 24
CC[C@H](NC(=O)[C@@H](NC(=O)[C@@H](N)CC)[C@@H](C)O)C(=O)N[C@H]1CCNC(=O)[C@H]([C@@H](C)O)NC(=O)[C@H](CCN)NC(=O)[C@H](CCN)NC(=O)[C@H](CC(C)C)NC(=O)[C@@H](Cc2ccccc2)NC(=O)[C@H](CCN)NC1=O [NAB 705] (H-[Abu]T[Abu][Dab][Dab][dF]L[Dab][Dab]T; lactam 4-C) : 5

Recall the recorded Antibacterial activity in the presence of rifampin concn (µg/ml) of 1.0 for CC[C@@H]1NC(=O)[C@H](CC(C)C)NC(=O)[C@@H](Cc2ccccc2)NC(=O)[C@H](CCN)NC(=O)[C@@H](NC(=O)[C@H](CCN)NC(=O)[C@@H](N)[C@@H](C)O)CCNC(=O)[C@H]([C@@H](C)O)NC(=O)[C@H](CC)NC1=O [NAB 701] (H-T[Dab][Dab][Dab][dF]L[Abu][Abu]T; lactam 3-C) with E. coli IH3080 and state it.
0
